experimental_system: T1, His-tagged cynomolgus monkey TIGIT (Acro Biosystems #TIT-05223) (cynomolgus monkey, UniProt A0A7N9I9V4 89-209)
T1 construct: Bought protein; also called cyno TIGIT; cynomolgus TIGIT; not shown: His tag
T1 sequence (A0A7N9I9V4 entry or part of it): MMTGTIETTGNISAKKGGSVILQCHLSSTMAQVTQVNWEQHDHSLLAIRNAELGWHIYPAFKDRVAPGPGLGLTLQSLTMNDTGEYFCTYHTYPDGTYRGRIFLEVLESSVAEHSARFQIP
test_description: SPR (Carterra LSA), scFv-Fc captured, His-TIGIT analyte
Experimental: Binding affinities of anti-TIGIT antibodies to human, cyno, and murine TIGIT were measured by Surface Plasmon Resonance (SPR) on a Carterra LSA instrument. Goat anti-human Fc antibody was amine coupled to a HC30M chip. ScFv-Fc supernatants were diluted 30-fold with HBSTE and were captured by the anti-human Fc coupled HC30M chip. A 1:2 dilution series of his-tagged human TIGIT, starting at 400 nM, was injected onto the chip for binding. […] Data were analyzed using the Carterra™ Kinetics software.
measurement_label: Kd (nM)
Give your result in nM as a bare value.

Sample answers from the record:
43586p1.1.G9 (scFv, V domains shown) VH: EVQLLESGGGLVQPGGSLRLSCAASGFTFTTYAMSWVRQAPGKGLEWVAGISYIGSDKYYADSVKGRLTISRDNSKNTLYLQMDSLRAEDTAVYYCAKHLTGGTTDYYYYGMDVWGQGTTVTVS VL: QSVLTQPPSASGTPGQRVTISCSGSTSNIGTSRYVHWYQHLPGTAPKLLIYLDSQRPSGVPDRFSASKSGTSASLAISGLQSEDEADYYCSAWDDSLSAWVFGGGTKLTVL; 18.8
43586p2.D11 (scFv, V domains shown) VH: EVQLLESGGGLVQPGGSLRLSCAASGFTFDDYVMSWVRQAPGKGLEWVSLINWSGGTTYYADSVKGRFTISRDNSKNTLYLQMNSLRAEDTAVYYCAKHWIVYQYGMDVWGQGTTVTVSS VL: QSVLTQPSSASGTPGQRVAISCSGTISNIETKYVSWYKYVSWYQQLPGTAPKLLIYNNVQRPSGVPDRFSGSQSGTSASLAISGLQSEDEAHYYCASWEGGLNSWVFGGGTKLTVL; 87.4

Kindly note the recorded Kd for 43586p2.B02 (scFv, V domains shown) VH: EVQLLESGGGLVQPGGSLRLSCAASGFTFTSYAMSWVSQAPGKGLEWVAGISYDGSSKYYADSVKGRLTISRDNSKNTLYLQMNSLRAEDTAIYYCAKHLTGGTTDYYYYAMDVWGQGTTVTVSS VL: QSVLTQPPSASGTPGQRVTISCSGSRSNIGTNRYVHWYQQLPGTAPKLLIYGNHQRPSGVPDRFSGSKSGTSASLAISGLQSEDEADYYCAAWDDSLSAWVFGGGTKLTVL , which is 26.8
